target: PreQ1 riboswitch; experiment: Binding affinity to Alexa Fluor 647-labeled Tte preQ1 riboswitch assessed as dissociation constant by fluorescence based analysis; type: nucleic-acid assay, Caldanaerobacter subterraneus, subsp. tengcongensis
observed_property: Kd (nM)
All answers are understood in nM, so give the number only.

Asked: Returns the measured Kd for the input molecule. Input: NCCOc1ccc2oc3ccccc3c2c1
Given back: 500

* * *

biological target: S-adenosylmethionine-VI riboswitch; assay: Binding affinity to Bifidobacterium angulatum SAM-VI riboswitch assessed as dissociation constant by ITC analysis; type: nucleic-acid assay
For each record, write down the corresponding Kd.
Give the quantity in µM, number only.

Asked: Value lookup for Kd; key = Nc1ncnc2c1ncn2[C@@H]1O[C@H](CSCC[C@H](N)C(=O)O)[C@@H](O)[C@H]1O
Given back: 10.9

Asked: Please report the recorded Kd for C[S+](CC[C@H](N)C(=O)[O-])C[C@H]1O[C@@H](n2cnc3c(N)ncnc32)[C@H](O)[C@@H]1O (some centres not stated) .
Given back: 0.33

* * *

tested on: PreQ1 riboswitch; assay: Binding affinity to Tte preQ1 riboswitch aptamer assessed as change in enthalpy by ITC analysis; assay type: nucleic-acid assay; settings: Caldanaerobacter subterraneus; subsp. tengcongensis
observed_property: deltaH
Respond with a number, then the unit of measure.

Asked: Find the recorded deltaH belonging to Nc1ncnc2c1ncn2[C@@H]1O[C@H](CSCC[C@H](N)C(=O)O)[C@@H](O)[C@H]1O and report it.
Given back: -8.27 kcal/mol

Asked: Returns the measured deltaH for the input compound. Input: C[S+](CC[C@H](N)C(=O)[O-])C[C@H]1O[C@@H](n2cnc3c(N)ncnc32)[C@H](O)[C@@H]1O (some centres undefined)
Given back: -14.5 kcal/mol

Asked: Form field: reported deltaH of NCCCNC[C@H]1O[C@@H](n2cnc3c(N)ncnc32)[C@H](O)[C@@H]1O
Given back: -20.9 kcal/mol

Asked: Data request, read-out deltaH, for Nc1ncnc2c1ncn2[C@@H]1O[C@H](CNCC[C@H](N)C(=O)O)[C@@H](O)[C@H]1O
Given back: -22.8 kcal/mol

* * *

tested on: PreQ1 riboswitch; assay: Binding affinity to Tte preQ1 riboswitch assessed as change in Gibb's free energy by ITC analysis; format: nucleic-acid assay; settings: Caldanaerobacter subterraneus; subsp. tengcongensis
observed_property: deltaG (kcal/mol)
Please reply with the bare figure in kcal/mol and do not write the unit itself.

Asked: Quick check: deltaG of Nc1ncnc2c1ncn2[C@@H]1O[C@H](CNCC[C@H](N)C(=O)O)[C@@H](O)[C@H]1O ?
Given back: -7.48

Asked: Given the entry Nc1ncnc2c1ncn2[C@@H]1O[C@H](CSCC[C@H](N)C(=O)O)[C@@H](O)[C@H]1O , report its measured deltaG.
Given back: -6.64

Asked: Query: deltaG; subject: C[S+](CC[C@H](N)C(=O)[O-])C[C@H]1O[C@@H](n2cnc3c(N)ncnc32)[C@H](O)[C@@H]1O (some centres undefined)
Given back: -8.44

Asked: Fill in the blank: the reported deltaG of NCCCNC[C@H]1O[C@@H](n2cnc3c(N)ncnc32)[C@H](O)[C@@H]1O is ____.
Given back: -7.89
